Experimental system: Nef:Hck-YEEI complex (Homo sapiens)
Sequence (P08631 with tags, fused parts or gaps isoform P08631-3, other chains not shown): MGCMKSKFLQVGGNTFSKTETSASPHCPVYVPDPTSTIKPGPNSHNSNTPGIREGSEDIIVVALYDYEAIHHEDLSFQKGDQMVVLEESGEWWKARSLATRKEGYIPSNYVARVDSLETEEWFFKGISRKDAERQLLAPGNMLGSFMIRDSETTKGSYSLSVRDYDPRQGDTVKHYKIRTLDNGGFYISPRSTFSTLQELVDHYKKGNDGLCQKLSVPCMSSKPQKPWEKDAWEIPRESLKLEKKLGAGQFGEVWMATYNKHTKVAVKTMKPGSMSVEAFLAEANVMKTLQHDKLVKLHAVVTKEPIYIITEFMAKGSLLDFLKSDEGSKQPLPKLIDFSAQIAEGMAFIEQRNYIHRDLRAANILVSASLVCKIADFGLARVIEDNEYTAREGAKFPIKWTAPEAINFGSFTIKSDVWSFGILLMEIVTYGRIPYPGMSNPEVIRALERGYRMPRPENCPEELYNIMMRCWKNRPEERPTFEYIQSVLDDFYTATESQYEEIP
Assay info: biochemical
Condition notes: IC50, kinase activity of Nef:Hck-YEEI complex, dose response study, FIG. 5B, text b88

{"columns": ["Molecule", "IC50"],
 "data": [
  ["OCCCNc1ncnc2oc(-c3ccccc3)c(-c3ccccc3)c12 [IIIa]", "~3 µM"]
]}

---

Tested on: U87MG cells
Condition notes: human, 96 h, 30 μM
Method: Lead compounds from the yeast screen were evaluated for activity in a Nef-dependent HIV replication assay. For these experiments, U87MG astroglioma cells engineered to express the HIV-1 co-receptors CD4 and CXCR4 were employed. […] U87MG cells were infected with HIV-1 in the presence of the top five compounds identified in the yeast screen, and HIV replication was monitored as p24 release into the culture supernatant 4 days later, as known in the art. […]

{"columns": ["Chemical string", "Cytotoxicity, Viable cell % control / % control"],
 "data": [
  ["COc1ccc(Nc2nc3ccccc3nc2NS(=O)(=O)c2ccc(C)cc2)c(OC)c1", 90],
  ["O=S(=O)(Nc1nc2ccccc2nc1Nc1ccc(O)cc1)c1ccccc1", 88],
  ["CCOc1ccc(S(=O)(=O)Nc2nc3ccccc3nc2Nc2ccc(OC)cc2)cc1", 99],
  ["O=S(=O)(Nc1nc2ccccc2nc1Nc1ccccc1)c1ccccc1", 97],
  ["Nc1ccc(S(=O)(=O)Nc2nc3ccccc3nc2Nc2ccc3ccccc3c2)cc1", 92],
  ["Cc1ccc(-c2oc3ncnc(N)c3c2-c2ccc(C)cc2)cc1", 90],
  ["O=S(=O)(Nc1nc2ccccc2nc1Nc1cccc(O)c1)c1ccccc1", 92],
  ["Cc1ccc(S(=O)(=O)Nc2nc3ccccc3nc2Nc2ccc3c(c2)OCCO3)cc1", 96],
  ["Nc1ncnc2oc(-c3ccccc3)c(-c3ccccc3)c12", 94],
  ["CCOc1ccc(S(=O)(=O)Nc2nc3ccccc3nc2Nc2ccccc2)cc1", 100],
  ["COc1ccc2nc(NS(=O)(=O)c3ccccc3)c(Nc3cc(OC)c(OC)c(OC)c3)nc2c1", 95],
  ["O=C(O)CNc1ncnc2oc(-c3ccccc3)c(-c3ccccc3)c12", 100],
  ["COc1ccccc1Nc1nc2ccccc2nc1NS(=O)(=O)c1ccccc1", 93],
  ["CCOc1ccccc1Nc1nc2ccccc2nc1NS(=O)(=O)c1ccc(C)cc1", 100],
  ["c1ccc(-c2oc3ncnc(NCc4ccco4)c3c2-c2ccccc2)cc1", 109],
  ["COc1ccc(Nc2nc3ccccc3nc2NS(=O)(=O)c2ccc(C)cc2)cc1OC", 91],
  ["O=S(=O)(Nc1nc2ccccc2nc1Nc1cccc2ccccc12)c1ccccc1", 100],
  ["OCCNc1ncnc2oc(-c3ccccc3)c(-c3ccccc3)c12", 94],
  ["OCCCNc1ncnc2oc(-c3ccccc3)c(-c3ccccc3)c12", 95],
  ["COc1ccc(Nc2nc3ccccc3nc2NS(=O)(=O)c2ccccc2)cc1OC", 97]
]}

---

Entries and their measured Cytotoxicity, Viable cell % control follow.
System: U87MG cells
Condition notes: human, 96 h, 30 μM

{"columns": ["Compound", "Cytotoxicity, Viable cell % control"],
 "data": [
  ["COc1ccc(OC)c(Nc2nc3ccccc3nc2NS(=O)(=O)c2ccc(Cl)cc2)c1 [Compound Q2]", "100 % control"],
  ["COc1ccc(Nc2nc3ccccc3nc2NS(=O)(=O)c2ccc(Cl)cc2)c(OC)c1 [Compound Q5]", "96 % control"],
  ["COc1ccc(Nc2nc3ccccc3nc2NS(=O)(=O)c2ccccc2)cc1 [Compound Q20]", "89 % control"],
  ["O=C(Nc1ncnc2oc(-c3ccccc3)c(-c3ccccc3)c12)c1ccco1 [IIIh]", "89 % control"],
  ["c1ccc(-c2oc3ncnc(NCCCN4CCOCC4)c3c2-c2ccccc2)cc1 [IIIf]", "99 % control"],
  ["COc1ccc(-c2oc3ncnc(N)c3c2-c2ccccc2)cc1 [IIIj]", "97 % control"],
  ["O=S(=O)(Nc1nc2ccccc2nc1Nc1ccc2ccccc2c1)c1ccccc1 [Compound Q1]", "98 % control"],
  ["c1ccc(-c2oc3ncnc(NCCN4CCOCC4)c3c2-c2ccccc2)cc1 [IIIe]", "89 % control"],
  ["COc1ccc(Nc2nc3ccccc3nc2NS(=O)(=O)c2ccc(Cl)cc2)cc1OC [Compound Q3]", "100 % control"]
]}
